Biological target: recombinant His-tagged cynomolgus PD-1 (Acro Biosystems) (cynomolgus) (UniProt B0LAJ3)
Sequence (B0LAJ3 entry or part of it limits assumed): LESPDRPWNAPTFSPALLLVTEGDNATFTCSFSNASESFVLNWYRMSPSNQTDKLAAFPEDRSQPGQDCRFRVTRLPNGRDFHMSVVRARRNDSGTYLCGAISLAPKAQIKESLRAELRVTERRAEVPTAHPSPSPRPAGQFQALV
Assay: SPR Carterra LSA
Attribute: Kd
Lab book: enter the figure in nM, no units written.

| Substance | Kd, nM |
| --- | --- |
| KEYTRUDA ® (pembrolizumab) (antibody) | 0.575 |

Attention now turns to another entry.
Given item OPDIVO ® (nivolumab) (antibody) , the value recorded as its Kd is 6.4

The measurements presented in this section are drawn from patent US20240076343A1.
